Source of measurements: the Human Domainome abundance scans (Beltran et al. 2025)

B1: Chromodomain-helicase-DNA-binding protein 4, residues 365 to 417; numbered along this chain, Q14839 (parent)
chain: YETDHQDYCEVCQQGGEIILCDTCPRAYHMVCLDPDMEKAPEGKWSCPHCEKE

- Variants of: B1
- ASSAY_NOTES: abundance fitness (aPCA) (normalised: wild type 0, dead -1); higher = more abundant; growth selection in yeast, the domain comes from the species named
- CONDITION_DETAILS: Homo sapiens
Bucketed by reported abundance fitness, buckets being b0 = under -0.1, b1 = from -0.1 up to -0.03, b2 = -0.03 and over

>>> label_class("A40T")
"b0"
>>> label_class("H49T")
"b0"
>>> label_class("K44S")
"b2"
>>> label_class("H5F")
"b1"
>>> label_class("Q13V")
"b2"

Q: State the band of C24E
A: b0

Q: Please give the result for T3L too.
A: b2

Q: Please give the result for E17D too.
A: b0

Q: Please give the result for V31R too.
A: b1

Q: Please give the result for Q6W too.
A: b0

Q: Please give the result for V11Y too.
A: b2
